Taken from the supplement of paper PMC10567573.

B1: PHTF1 (parent)
chain: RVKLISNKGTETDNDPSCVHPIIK

# Variants of: B1
# PROCEDURE_DETAILS: protein stability index of a GFP-peptide fusion (GPS, HEK-293T) (PSI 1-6); higher = more stable;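 also: lentivirally expressed fusions sorted by FACS into six bins by GFP to DsRed ratio, PSI derived from sequencing read proportions per bin multiplied by bin number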
# CONDITION_NOTES: c terminus: a fixed tail appended
OBSERVED_PROPERTY: protein stability index

These solved cases illustrate the format of a correct answer.
The recorded protein stability index for entry RVKLISNGGTETDNDPSCVHPIIK [K8G] equals 4.62

The recorded protein stability index for entry RVKLISNKGTETDNDPTCVHPIIK [S17T] equals 4.27

More entries:
The recorded protein stability index for entry RVKLISNKGTETDNDPSCVQPIIK [H20Q] equals 4.61
